# Test system: CP215
# test-summary: qHTS profiling for inhibitors of Plasmodium falciparum proliferation (AID 504749); further: nearly all actives have a fitted effect of over 60% in size
# condition-parameters: P. falciparum in erythrocytes, SYBR Green DNA, 72 h; series mostly up to 12.8 µM
Inconclusive results are not listed. Activity calls are given as the source filed them. The call rests on the fitted dose curve; in most records, active means well fitted inhibition curve with a large enough effect; inconclusive means small, poorly fitted or top-dose-only effect; inactive means flat fitted curve, though single readings scatter. Peptide text beside a SMILES is read from it.
Outcome codes: 1 = active, 0 = inactive

INSERT INTO assay_data (compound, measurement_target, discrete_label) VALUES
  ('COc1ccc(OC)c([C@H](O)CNC(=O)CN)c1', 'CP215', 0),
  ('C=CC1=C(C(=O)O)N2C(=O)[C@@H](NC(=O)/C(=N\OCC(=O)O)c3csc(N)n3)[C@@H]2SC1', 'CP215', 0),
  ('COc1ccc2c(c1)N(C[C@@H](C)CN(C)C)c1ccccc1S2', 'CP215', 0),
  ('CC(=O)[C@@]1(O)CC[C@H]2[C@H]3C[C@@H](C)C4=CC(=O)C=C[C@]4(C)[C@@]3(F)[C@@H](O)C[C@]21C', 'CP215', 0),
  ('CCCCC[C@H](O)/C=C\[C@H]1[C@H](C/C=C\CCCC(=O)O)[C@@H](O)C[C@H]1O (tested in a mixture with another compound)', 'CP215', 0),
  ('CCCC(=O)O[C@]1(C(=O)CO)CCC2[C@@H]3CCC4=CC(=O)CC[C@]4(C)C3C(O)C[C@]21C (some centres not stated)', 'CP215', 0),
  ('O=C(O)[C@@H]1CCCN1', 'CP215', 0),
  ('C[C@@H]1O[C@H](O[C@@H]2\C=C/C=C\C=C/C=C\C[C@H](C)OC(=O)/C=C\[C@H]3O[C@@H]3C[C@H](O)C[C@]3(O)C[C@@H](O)[C@@H](C(=O)O)[C@H](C2)O3)[C@@H](O)[C@H](N)[C@@H]1O (stereo in doubt)', 'CP215', 0),
  ('COc1ccc(C[C@@](C)(N)C(=O)O)cc1OC', 'CP215', 0),
  ('CC(C)NC[C@H]1CCc2cc(CO)c([N+](=O)[O-])cc2N1', 'CP215', 0),
  ('c1ccc2c(c1)CCC[C@@H]2C1=NCCN1', 'CP215', 0),
  ('O=C(O)COCCN1CCN([C@@H](c2ccccc2)c2ccc(Cl)cc2)CC1', 'CP215', 0),
  ('CN(C/C=C\c1ccccc1)Cc1cccc2ccccc12', 'CP215', 0),
  ('CC(=C(CCOP(=O)(O)O)SC(=O)c1ccccc1)N(C=O)Cc1cnc(C)nc1N', 'CP215', 0),
  ('CN(C)CCOC(=O)[C@@H](c1ccccc1)C1(O)CCCC1', 'CP215', 0),
  ('C[C@H](CCC(=O)O)[C@H]1CC[C@@H]2[C@@H]3[C@@H](O)C[C@H]4C[C@@H](O)CC[C@@]4(C)[C@H]3CC[C@@]21C', 'CP215', 0),
  ('CN1CCO[C@H](c2ccccc2)c2ccccc2C1', 'CP215', 0),
  ('O=C1O[C@H](CN2CCOCC2)CN1/N=C\c1ccc([N+](=O)[O-])o1', 'CP215', 0),
  ('CC=C(/C(=C/C)c1ccc(O)cc1)c1ccc(O)cc1', 'CP215', 0),
  ('COC1C=CO[C@@]2(C)Oc3c(C)c(O)c4c(O)c(c5c(nc6cc(C)ccn65)c4c3C2=O)NC(=O)/C(C)=C\C=CC(C)C(O)[C@@H](C)C(O)C(C)[C@@H](OC(C)=O)C1C (some centres not stated)', 'CP215', 1),
  ('CC1C2CCC3C4CC=C5CC(N(C)C)CC[C@@]5(C)C4CC[C@@]32CN1C (some centres not stated)', 'CP215', 0),
  ('C[C@@]12CCC(=O)C=C1C=CC1C2CC[C@]2(C)C1CC[C@@]21CCC(=O)O1 (some centres not stated)', 'CP215', 0),
  ('COc1ccccc1OC[C@H](O)CO', 'CP215', 0),
  ('CCN(CC)[C@@H](C)CN1c2ccccc2Sc2ccccc21', 'CP215', 0),
  ('CO[C@@H]1C[C@H](O[C@H]2[C@@H](C)[C@H](O[C@@H]3O[C@@H](C)C[C@@H](N(C)C)[C@@H]3OC(C)=O)[C@H](C)C[C@]3(CO3)C(=O)[C@H](C)[C@H](OC(C)=O)[C@H](C)[C@H](C)OC(=O)[C@@H]2C)O[C@H](C)[C@@H]1OC(C)=O', 'CP215', 0),
  ('CNC1CC(N)[C@H](O)[C@@H](O[C@@H]2OC(CO)C3OC4(OC(C(N)CO)C(O)C(O)C4O)O[C@@H]3[C@H]2O)C1O (some centres not stated)', 'CP215', 0),
  ('CC1(C)OC2CO[C@]3(COS(N)(=O)=O)OC(C)(C)OC3C2O1 (some centres not stated)', 'CP215', 0),
  ('C[C@@]12CC[C@H]3[C@@H](CCC4=CC(=O)CC[C@]43C)[C@H]1CC[C@H]2C(=O)CO', 'CP215', 0),
  ('Cc1onc(-c2ccccc2Cl)c1C(=O)N[C@H]1C(=O)N2[C@H]1SC(C)(C)[C@H]2C(=O)O', 'CP215', 0),
  ('C[C@]12C=CC(=O)C=C1CCC1C2C(O)C[C@]2(C)C1CC[C@]2(O)C(=O)CO (some centres not stated)', 'CP215', 0),
  ('Clc1ccc([C@H](Cn2ccnc2)OCc2c(Cl)cccc2Cl)c(Cl)c1', 'CP215', 1),
  ('CCN(CC)CCOC(=O)[C@@H](Cc1cccc2ccccc12)C[C@@H]1CCCO1', 'CP215', 0),
  ('CO[C@]1(NC(=O)C2SC(=C(C(N)=O)C(=O)O)S2)C(=O)N2C(C(=O)O)=C(CSc3nnnn3C)CS[C@H]21 (some centres not stated)', 'CP215', 0),
  ('COC(=O)C(Cc1ccccc1)NC(=O)C(N)CC(=O)O (stereo not drawn) (H-Asp-Phe-OMe; configuration not given here)', 'CP215', 0),
  ('COc1cc2nc(N3CCN(C(=O)[C@@H]4CCCO4)CC3)nc(N)c2cc1OC', 'CP215', 0),
  ('Cc1cccc(CN2CCN([C@@H](c3ccccc3)c3ccc(Cl)cc3)CC2)c1', 'CP215', 0),
  ('O=C1OC(CO)C(O)C(O)C1O (configuration not stated)', 'CP215', 0);
